- Target Of Assay: pooled human IgG (human IgG1,2,3 and 4)
Reported Metric: Enzyme Activity Endpoint Assay: scIgG (ng/µL)
Could you give me the number in ng/µL? Just the number is fine.

Protein	Measured Number
PRT-496 (protein) MVTSVWTKGVTPPTDFIKGEDVFHAPYKAGQGWYDITKTFNGKDDLLCGAATAGNMLHWWFDQNKEYIEAYLKKHPEKQKIMFGDQELLDVRKAINTKGSQKNSELFNYFRDKAFPNLSARRLGVMPDLVLDMFINGYYLNVTKTQTTDVNRTYQEKDKRGGIFDAVFTRGDQSKLLTSRHDLKNKGLKEISDLIKQELTEGKALGLSHTYANVRINHVINLWGADFDSDGNLKAIYVTDSDSNASIGMKKYFVGVNSAGKVAISAKEIKEDNIGAQVLGLFTLSTGQDIWNQTNLEHHHHHH	0

Problem: Given the protein PRT-677 (protein) MQITSVWTKGVIPPTMDQFRYNNYDVFHAPYLPHQGWYDITKTFDGGDNLLCGAATAGNMLHWWFDQNKEYIENYLKKYPEKQKIIFNNQELFDLRKAINTKDSQTNSELFNYFRDKAFGNLSARQKGVMPDLVLDMFINGYYLNLFKTQSTDVNRPNDTRDKRGGFFDHVFGRGDQTKLLTARHDLYNGGLSDISQLIKQELQSGKALAISHTYGNVSSSHVINLWGADFDAEGNLEAIYVTDSDDRSSIGMKKYYVGINASGKVAISAKKIEGENVGAQVLGLFTLSSGKEIWKKLSLEHHHHHH , write its reported Enzyme Activity Endpoint Assay: scIgG.
Solution: 0

Problem: Give me measured Enzyme Activity Endpoint Assay: scIgG, please, for this protein: PRT-104 (protein) MANQEIRYSEVTPYHVTSVWTKGVTPPAKFTQGEDVFHAPYVANQGWYDITKTFNGKDDLLCGAATAGNMLHWWFDQNKEKIEAYLKKHPDKQKIMFGDQELLDVRKVINTKGDQTNSELFNYFRDKAFPGLSARRIGVMPDLVLDMFINGYYLNVTKTQTTDVNRTYQEKDRRGGIFDAVFTRGDQSKLLTSRHDFKEKNLKEISDLIKKELTEGKALGLSHTYANVRINHVINLWGADFDSNGNLKAIYVTDSDSNASIGMKKYFVGVNSAGKVAISAKEIKEDNIGAQVLGLFTLSTGQDSWNQTN
Solution: 0

Reference source for all entries: patent US20250027068
